# Test system: Salmonidae
# protocol_notes: Binding affinity to salmon sperm DNA assessed as DNA intercalation by SYBR-green dye based fluorescence assay
Active and inactive are the calls of the source. The calls are words filed in the database; no cut-off is given here.
One label from this list, please: active, inactive

# count of solved cases: 3
CC1=NN(c2ccc(C(=O)O)cc2)C(=O)/C1=C\c1ccc(-c2ccc(C(=O)NCc3ccc(F)cc3)cc2)o1 inactive
CC1=NN(c2ccc(Cl)c(C(=O)O)c2)C(=O)/C1=C\c1ccc(-c2ccc(Cl)c(C(=O)OCc3ccccc3)c2)o1 active
CC1=NN(c2cccc(C(=O)O)c2)C(=O)/C1=C\c1ccc(-c2ccc(Cl)c(C(=O)NCc3ccc(F)cc3)c2)o1 inactive

In the following, a different compound is considered.
stdin: What call does the record list for `CC1=NN(c2cccc(C(=O)O)c2)C(=O)/C1=C\c1ccc(-c2ccc(Cl)c(C(=O)NCC3CC3)c2)o1` ?
stdout: inactive

----------
# Test system: Salmonidae
# protocol_notes: Binding affinity to salmon sperm DNA assessed as DNA intercalation by SYBR-green dye based fluorescence assay
Activity calls are given as the source filed them. The rule behind the calls is not given here.
One label from this list, please: active, inactive

# count of solved cases: 2
CC1=NN(c2ccc(C(=O)O)cc2)C(=O)/C1=C\c1ccc(-c2ccc(Cl)c(C(=O)NCC3CC3)c2)o1 inactive
CC1=NN(c2ccc(Cl)c(C(=O)O)c2)C(=O)/C1=C\c1ccc(-c2ccc(Cl)c(C(=O)OCc3ccccc3Cl)c2)o1 active

stdin: What call does the record list for `CC1=NN(c2ccc(C(=O)O)cc2)C(=O)/C1=C\c1ccc(-c2ccc(Cl)c(C(=O)NCc3ccc(F)cc3)c2)o1` ?
stdout: inactive
